Listing of entries alongside the reported TGI.
# Tested on: PC-3 prostate
# assay_protocol: NCI tumour cell line growth inhibition, 48 h

compound	assayed_target	TGI
NS(=O)(=O)c1ccc(NC(=O)N/N=C/c2ccccc2O)cc1	PC-3 prostate	> 100 µM
CCC(NC(C)c1ccccc1)C(=O)c1ccc(OCc2ccccc2)c(OCc2ccccc2)c1 (stereo not drawn)	PC-3 prostate	> 100 µM
CCc1n[nH]c(=O)n1CCCCCCCCn1c(CC)n[nH]c1=O	PC-3 prostate	> 100 µM

----------
# Test system: SR leukemia
# assay_protocol: NCI tumour cell line growth inhibition, 48 h

compound	TGI
CN(C)c1ccc(/C=C\c2ccnc3ccccc23)cc1	> 100 µM
COc1nc(N=P(c2ccccc2)(c2ccccc2)c2ccccc2)cc(=O)n1C	> 100 µM
O=C(O)c1nc2ccccc2nc1Nc1ccc(Cl)c(Cl)c1	> 100 µM
CC(C)(C)OC(=O)NC1CCCC1C(=O)C1=CCCC1 (stereo not drawn)	> 100 µM
O=C1NC(=NCCc2ccc(F)cc2)S/C1=C\c1ccc2ncccc2c1	> 25 µM
O=S(O)CCCCCSSc1ccccc1	35 µM
O=C(CNc1ccccn1)Nn1cnc2ccc(S(=O)(=O)Nc3ccccn3)cc2c1=O	> 100 µM
CCCCCCCC/C=C1\CCC(CN(C)C)C1=O (stereo not drawn)	13.1 µM

----------
# System: SF-539 CNS
# assay_protocol: NCI tumour cell line growth inhibition, 48 h

compound	assayed_target	TGI
COc1ccccc1NC(=O)C1=C(C)NC(C)=C(C(=O)Nc2ccccc2OC)C1c1ccccc1[N+](=O)[O-]	SF-539 CNS	37 µM
O=C1N/C(=N\N=C\c2ccccc2)C(c2ccccc2)O1 (stereo not drawn)	SF-539 CNS	> 100 µM
N#CCn1c(=O)c(Oc2ccc(F)cc2F)cc2cnc(NC3CCOCC3)nc21	SF-539 CNS	> 25 µM

----------
Listing of entries alongside the reported TGI.
# Tested on: M14 melanoma
# assay_protocol: NCI tumour cell line growth inhibition, 48 h
readout_type: TGI

compound	obs_value
[N-]=[N+]=Nc1ccccc1-c1ccccc1[N+](=O)[O-]	> 100 µM
Clc1ccc(Nc2nnc(CNc3ccc(-c4nnc(Nc5ccc(Cl)cc5)s4)cc3)s2)cc1	58.4 µM
COc1cc[c]([Sn]([c]2ccc(OC)cc2)([c]2ccc(OC)cc2)[c]2ccc(OC)cc2)cc1	36 µM
CC1CC2C3CCC4=CC(=O)C=CC4(C)C3(F)C(O)CC2(C)C1(O)C(=O)COP(=O)(O)O (centres undefined)	> 500 µM
CCN(CC)c1ccc(/C=C/C(=O)c2ccc(Nc3nc(Nc4ccccc4)nc(Nc4ccccc4)n3)cc2)cc1	> 100 µM
Cc1ccccc1N=Nc1c(O)ccc2ccccc12	> 100 µM
COc1cc(OC2OC(CO)C(O)C(O)C2O)c2c(O)c3c(=O)cc(C)oc3cc2c1 (centres undefined)	> 100 µM
CCN(CC)CCCNc1c2c(Cl)cc(Cl)cc2nc2nc(=O)[nH]c(C)c12	61.9 µM
CC(C)(O)/C1=C/C=C/CCCCCCCCCC1	> 100 µM
Nc1nc2c(N)cc(C(F)(F)F)cc2nc1-c1ccccc1	> 100 µM
Cc1ccc(S(=O)c2cccs2)cc1 (centres undefined)	> 100 µM
Oc1ccc(Cl)cc1C(c1cc(Cl)ccc1O)C(Cl)(Cl)Cl	3.62 µM
Cn1cc(/C=C\[N+](=O)[O-])c2ccccc21	> 100 µM
COCC(C)(C)N=CN1Cc2cc3ccccc3nc2C1	> 100 µM

----------
Listing of entries alongside the reported TGI.
# Tested on: SF-295 CNS
# assay_protocol: NCI tumour cell line growth inhibition, 48 h
readout_type: TGI

compound	readout_type	obs_value
C[C@]12C=CC(=O)C=C1CC[C@@H]1[C@@H]2CC[C@@]2(C)[C@H]1CC[C@]2(O)C(N)=O	TGI	> 100 µM
FC(F)(F)c1ccc2c(c1)N(CCCNCCN1CCOCC1)c1ccccc1S2	TGI	27.4 µM
CC1(C)CCC(Sc2ccccc2)O1 (stereo unspecified)	TGI	> 100 µM
COC(=O)C1CC2C=CC=CC(=O)C2(C)C1 (stereo unspecified)	TGI	> 100 µM
Cn1c(=O)c2[nH]c(N=O)nc2n(C)c1=O	TGI	> 100 µM
Cc1ccccc1N=Nc1c(O)ccc2ccccc12	TGI	> 100 µM
CC1CC2C3CCC4=CC(=O)C=CC4(C)C3(F)C(O)CC2(C)C1(O)C(=O)COP(=O)(O)O (stereo unspecified)	TGI	> 500 µM
CCOC(=O)CSc1cc(Cl)c(C)cc1S(=O)(=O)/N=C(/N=C/c1ccc([N+](=O)[O-])s1)NNC	TGI	47 µM
O=C(Cc1ccccc1)NN1C(=O)C(Cl)C1c1ccccc1Cl (stereo unspecified)	TGI	> 100 µM
O=C1C(c2ccccc2)=C(c2ccccc2)C(c2ccc(Cc3ccc(C4=C(c5ccccc5)C(=O)C(c5ccccc5)=C4c4ccccc4)cc3)cc2)=C1c1ccccc1	TGI	> 100 µM
FC(F)(F)c1ccc(C2ON=C(c3ccccc3)N2C23CC4CC(CC(C4)C2)C3)cc1 (stereo unspecified)	TGI	> 10 µM

----------
# Tested on: UACC-62 melanoma
# assay_protocol: NCI tumour cell line growth inhibition, 48 h; in the data active = GI50 below about 0.43 µM; inactive = the rest
Outcome codes: 1.0 for active, 0.0 for inactive

molecule	label
CCOCC1(COCC)CCC(c2[nH]ncc2CN(C)CCNC)CC1	0.0
O=C1/C(=C/c2ccc(Cl)c(Cl)c2)CN(C(=O)C(Cl)Cl)C/C1=C\c1ccc(Cl)c(Cl)c1	1.0
CCCCN(CCCC)C(=O)[C@H](CC)[C@@H]1CC[C@@H](C)[C@@H]([C@H](C)[C@@H](O)[C@@H](C)C(=O)[C@H](CC)C2O[C@]3(C=C[C@@H](O)[C@]4(CC[C@@](C)([C@H]5CC[C@](O)(CC)[C@H](C)O5)O4)O3)[C@H](C)C[C@@H]2C)O1 (some centres undefined)	0.0
COc1cc(/C=C2\C(=O)N(Cc3ccc(Cl)cc3)c3ccccc32)cc(OC)c1OC	0.0
C=C1C[C@H]2C=Nc3cc(OCCCOc4cc5c(cc4OC)C(=O)N4CC(=C)C[C@H]4C=N5)c(OC)cc3C(=O)N2C1	1.0
Cn1cc(/C=C\[N+](=O)[O-])c2ccccc21	0.0
O=C1NC(=NCCc2ccc(F)cc2)S/C1=C\c1ccc2ncccc2c1	0.0
COc1cc[c]([Sn]([c]2ccc(OC)cc2)([c]2ccc(OC)cc2)[c]2ccc(OC)cc2)cc1	0.0
COc1ccc(C(O)c2cc3c(N)c(C(=O)Nc4ccc(Cl)cc4)sc3nc2C)cc1 (centres undefined)	0.0
NS(=O)(=O)c1ccc(Nc2cc(-c3ccc(O)c(F)c3)[nH]n2)cc1	0.0
CCN(CC)c1ccc(/C=C/C(=O)c2ccc(Nc3nc(Nc4ccccc4)nc(Nc4ccccc4)n3)cc2)cc1	0.0
C=C1C(=O)O[C@H]2[C@H]1CC/C(COC(=O)c1cc(OC)c(OC)c(OC)c1)=C\CC[C@@]1(C)O[C@@H]21	0.0
COc1ccc2nc3cc(Cl)ccc3c(NCCCNCCO)c2c1	0.0
CCOC(=O)[C@@H](C)C[C@H](Cc1ccccc1)NC(=O)c1csc([C@@H](C[C@H](C(C)C)N(C)C(=O)[C@@H](NC(=O)[C@H]2CCCCN2C)C(C)(C)CC)OC(C)=O)n1	1.0

----------
Listing of entries alongside the reported TGI.
# Test system: NCI-H522 lung
# assay_protocol: NCI tumour cell line growth inhibition, 48 h

smiles_input	TGI, µM
COc1cc2cc(Oc3ccc(NC(=O)Nc4cc(C(F)(F)F)cc(C(F)(F)F)c4)cc3)c(C)nc2cc1OCCN1CCOCC1	7.29
O=C(Nc1ccc(Oc2ccc(F)cc2)cc1)[C@@H]1C[C@@H](Cc2ccc(F)cc2)CN1C(=O)Cn1ccnn1	19.3
Clc1nccc2c(-c3csc(-c4c[nH]c5ccc(Br)cc45)n3)c[nH]c12	6.86
COc1cc(/C=C2\C(=O)N(Cc3ccc(Cl)cc3)c3ccccc32)cc(OC)c1OC	5.93

----------
Listing of entries alongside the reported TGI.
# Test system: EKVX NSCLC
# assay_protocol: NCI tumour cell line growth inhibition, 48 h

compound	TGI
CN(C)CCN(C)P12(Oc3ccccc3O1)Oc1c(Cl)c(Cl)c(Cl)c(Cl)c1O2	> 100 µM
O=C1N/C(=N\N=C\c2ccccc2)C(c2ccccc2)O1 (stereo not drawn)	> 100 µM
COC1(CC[C@@H](C)COC2OC(CO)C(O)C(O)C2O)O[C@H]2C[C@H]3[C@@H]4CC=C5C[C@@H](OC6OC(CO)C(OC7OC(C)C(O)C(O)C7O)C(O)C6OC6OC(C)C(O)C(O)C6O)CC[C@]5(C)[C@H]4CC[C@]3(C)[C@H]2[C@@H]1C (stereo partly drawn)	33.3 µM
CCN(CC)CCCNc1c2c(Cl)cc(Cl)cc2nc2nc(=O)[nH]c(C)c12	> 100 µM
O=NN1C(c2ccccc2)CNC(=O)CC1c1ccccc1 (stereo not drawn)	> 100 µM
O=C(O)C1=C/C(=C(/c2ccccc2)c2cc(C(=O)O)c(O)c3ccccc23)c2ccccc2C1=O	> 100 µM
CC(=O)OI1NC(=O)c2ccccc21	> 100 µM
COc1ccc(-n2c(CCC(=O)O)nc3c2C(=O)c2ccccc2C3=O)cc1	> 100 µM
CCCCN(CCCC)C(=O)[C@H](CC)[C@@H]1CC[C@@H](C)[C@@H]([C@H](C)[C@@H](O)[C@@H](C)C(=O)[C@H](CC)C2O[C@]3(C=C[C@@H](O)[C@]4(CC[C@@](C)([C@H]5CC[C@](O)(CC)[C@H](C)O5)O4)O3)[C@H](C)C[C@@H]2C)O1 (stereo partly drawn)	8.8 µM
COC(=O)C1(NC(=O)C(Cc2ccccc2)N(C(=O)OC(C)(C)C)C(=O)OC(C)(C)C)CCCC1 (stereo not drawn)	> 100 µM
CC(C)(C)c1cc(CCC(=O)Nc2ccc(Cl)cc2)[nH]c(=S)n1	> 100 µM
CC(C)(CN1C(=O)C(Cl)=C(Cl)C1=O)CN1C(=O)C(Cl)=C(Cl)C1=O	51.5 µM
O[C@]12C=C(c3nccc4c3[nH]c3ccccc34)[C@@H]3CCN(CCCC/C=C\CC1)C[C@@]31CC3/C=C\CCCCN3[C@H]12 (stereo partly drawn)	3.57 µM
CCOC(=O)[C@@H](C)C[C@H](Cc1ccccc1)NC(=O)c1csc([C@@H](C[C@H](C(C)C)N(C)C(=O)[C@@H](NC(=O)[C@H]2CCCCN2C)C(C)(C)CC)OC(C)=O)n1	> 16.7 µM
CCCn1c2c(c3ccccc3c1=O)C(=O)c1ccccc1-2	> 100 µM
O=C(O)c1nc2ccccc2nc1Nc1ccc(Cl)c(Cl)c1	> 100 µM
FC(F)(F)c1ccccc1C1SCC2=Nc3ccccc3CN21 (stereo not drawn)	24.9 µM
FC(F)(F)c1ccc2c(c1)N(CCCNCCN1CCOCC1)c1ccccc1S2	29.4 µM
CCOC(=O)CSc1cc(Cl)c(C)cc1S(=O)(=O)/N=C(/N=C/c1ccc([N+](=O)[O-])s1)NNC	49.2 µM
CCOC(=O)Cc1cc(OC)c(OC)cc1/C(Cl)=C(\CO)c1ccc(OC)c(OC)c1	> 100 µM
CN1CCN(CC(=O)N(C)c2ccc(N=C(c3ccccc3)c3c(O)[nH]c4ccc(C#N)cc34)cc2)CC1	19.7 µM
O=C(O/N=C1\CCCC\C1=C/c1ccccc1)c1ccc([N+](=O)[O-])cc1	> 100 µM
O=c1[nH]nc(Cc2ccccc2)n1/N=C/c1cccs1	> 100 µM
CSc1ccc(C2=C(c3ccccc3)C(=O)OC2)cc1	> 100 µM
CC(C)(C)c1cc(C(=O)Nc2ccccc2C(=O)NCCN)cc(C(C)(C)C)c1	3.96 µM
O=S(O)CCCCCSSc1ccccc1	> 100 µM
C#Cc1cccc(Nc2ncnc3cc(NC(=O)CCl)ccc23)c1	7.01 µM
O=C1NC(=S)S/C1=C\c1cn(-c2ccccc2)nc1-c1ccccc1	23.6 µM
CC1(C)CCN2C(=O)C34CCCC3CC21S4 (stereo not drawn)	> 100 µM
CC1(C)OP(=O)(c2ccccc2)C=C1Sc1ccc([N+](=O)[O-])cc1[N+](=O)[O-] (stereo not drawn)	> 100 µM
O=C(c1ccc(O)cc1O)C1C(c2ccc(O)cc2)OC(c2ccc(O)cc2)C1C(=O)c1ccc(O)cc1O (stereo not drawn)	60 µM
C[C@]12C=CC(=O)C=C1CC[C@@H]1[C@@H]2CC[C@@]2(C)[C@H]1CC[C@]2(O)C(N)=O	> 100 µM
O=C(Nc1ccc(Oc2ccc3nc(NC(=O)c4ccco4)[nH]c3c2)cc1)Nc1cc(C(F)(F)F)ccc1F	> 25 µM
